Target: T1, extracellular domain of the IL-4Rα (IL-4 binding protein) (UniProt P24394 26-232, limits assumed, biotinylated at Cys-206)
T1 construct: extracellular domain; Immobilised on the streptavidin-coated matrix of the biosensor through biotin at Cys-206; also called IL4BP; IL-4 specific receptor
T1 sequence (looked up): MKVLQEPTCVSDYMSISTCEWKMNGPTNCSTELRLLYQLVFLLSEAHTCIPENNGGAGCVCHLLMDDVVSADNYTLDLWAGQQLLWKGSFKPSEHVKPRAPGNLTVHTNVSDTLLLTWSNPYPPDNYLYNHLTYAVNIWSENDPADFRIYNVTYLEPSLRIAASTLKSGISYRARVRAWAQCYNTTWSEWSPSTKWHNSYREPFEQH
Experiment: biosensor (BIA2000), IL4BP biotinylated at Cys-206 on a streptavidin matrix, 25 C
RECORDED METRIC: Kd (mM)
Your answer should be a plain number; it is taken to be in mM.

Need Kd of Ac-RMKQLEDKVERLLSRNYRLENEVARLKKLVG-NH2 (not fully specified, Synthetic peptide derived from the GCN4 leucine zipper, designed to form a non-covalent parallel coiled-coil dimer) [Model 2] , thanks. 4.08
